Target: KRAS-G12D protein (Homo sapiens, UniProt P01116, G12D)
Sequence (P01116 1-188 isoform P01116-2 G12D): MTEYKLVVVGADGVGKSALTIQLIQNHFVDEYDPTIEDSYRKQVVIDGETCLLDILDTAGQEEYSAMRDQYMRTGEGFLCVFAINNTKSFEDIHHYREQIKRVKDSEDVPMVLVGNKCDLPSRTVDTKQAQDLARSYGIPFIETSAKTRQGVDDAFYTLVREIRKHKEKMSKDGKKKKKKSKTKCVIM
Assay: SOS-mediated nucleotide exchange assay (BODIPY-GDP / Tb-streptavidin TR-FRET)
Type: biochemical
*1 amine or outer side, *2 acyl side, *3 side chain or, on linkers, in order; H or OH if unused. Where a SMILES comes first, the peptide text is derived from it. Bridges are numbered along the chain shown (N, C = ends). [ ]: non-standard residue; d: D form. NMeNva(5-imidazol-1-yl) = CN[C@@H](CCCn1ccnc1)C(=O)O; Phe(4-guanidino) = N=C(N)Nc1ccc(C[C@H](N)C(=O)O)cc1; X59 = O=C([C@H](Cc1ccc(CN2CCCC2)cc1)N[*:1])[*:2]; Ala(pyrimidin-5-yl) = N[C@@H](Cc1cncnc1)C(=O)O; 3Pal(6-OMe) = COc1ccc(C[C@H](N)C(=O)O)cn1; X25 = O=C([C@H](Cc1ccc(F)nc1)N[*:1])[*:2]; 1Nal = N[C@@H](Cc1cccc2ccccc12)C(=O)O; NHCH2CH2SCH2CO = O=C(CSCCN[*:1])[*:2]; Ala(cPent) = N[C@@H](CC1CCCC1)C(=O)O; Phe(2-F) = N[C@@H](Cc1ccccc1F)C(=O)O; NMe3Pal = CN[C@@H](Cc1cccnc1)C(=O)O; X1 = O=C(C12CC(CN[*:1])(C1)C2)[*:2]; NMeAad = CN[C@@H](CCCC(=O)O)C(=O)O; NMeF = CN[C@@H](Cc1ccccc1)C(=O)O; PhLac = O=C(O)[C@@H](O)Cc1ccccc1; X4 = O=C([C@H](CCCF)N[*:1])[*:2]; 3Pal = N[C@@H](Cc1cccnc1)C(=O)O; Ahp(2) = CCCCC[C@H](N)C(=O)O; Cba = N[C@@H](CC1CCC1)C(=O)O; hLeu = CC(C)CC[C@H](N)C(=O)O; αMeC = C[C@](N)(CS)C(=O)O; NMeA = CN[C@@H](C)C(=O)O; Nle = CCCC[C@H](N)C(=O)O
Here, each record is paired with measured EC50 data.
Answer with a number only, understood to be in nM.

Consider the following illustrative entries.
CC(C)CC[C@@H]1NC(=O)[C@H](Cc2ccccc2F)NC(=O)[C@H](CC2CCCC2)NC(=O)[C@H](Cc2cncnc2)NC(=O)[C@H](C)N(C)C(=O)[C@H](Cc2ccccc2)OC(=O)C23CC(CNC(=O)[C@H](Cc4ccccc4)N(C)C1=O)(C2)C3 [compound 135] (cyclo([Ala(cPent)][Phe(2-F)][hLeu][NMeF][X1][PhLac][NMeA][Ala(pyrimidin-5-yl)])) ... 4.13
CCCCC[C@@H]1NC(=O)[C@H](Cc2ccc(OC)cc2)NC(=O)[C@H](CC2CCC2)NC(=O)[C@H](Cc2ccc(OC)nc2)NC(=O)[C@H](CCCNC(=N)N)NC(=O)[C@H](Cc2ccccc2)NC(=O)CSC[C@@](C)(C(N)=O)NC(=O)[C@H](Cc2ccccc2)N(C)C1=O [compound 365] ({CH2CO}-FR[3Pal(6-OMe)][Cba]Y(Me)[Ahp(2)][NMeF][αMeC]-NH2; thioether N-8) ... 50.3
CCCC[C@@H]1NC(=O)[C@H](Cc2ccccc2F)NC(=O)[C@H](CCCF)NC(=O)[C@H](Cc2cccnc2)NC(=O)[C@H](C)N(C)C(=O)[C@H](Cc2ccccc2)OC(=O)C23CC(CNC(=O)[C@H](Cc4cccnc4)N(C)C1=O)(C2)C3 [compound 120] (cyclo([3Pal][X4][Phe(2-F)][Nle][NMe3Pal][X1][PhLac][NMeA])) ... 35.1

The measured EC50 associated with CCCCC[C@@H]1NC(=O)[C@H](Cc2ccc(OC)cc2)NC(=O)[C@H](CC2CCC2)NC(=O)[C@H](Cc2ccc(N3CCC[C@H]3CN)cc2)NC(=O)[C@H](CCCNC(=N)N)NC(=O)[C@H](Cc2ccccc2)NC(=O)CSC[C@@](C)(C(N)=O)NC(=O)[C@H](Cc2ccccc2)N(C)C1=O reads 8.59

The measured EC50 associated with CCCC[C@@H]1NC(=O)[C@H](Cc2ccc(O)cc2)NC(=O)[C@H](CC(C)C)NC(=O)[C@H](Cc2ccc(NC(=N)N)cc2)NC(=O)[C@H](CCCNC(=N)N)NC(=O)[C@H](Cc2ccccc2)NC(=O)CSC[C@@H](C(N)=O)NC(=O)[C@H](Cc2ccccc2)N(C)C1=O [compound 45, cyclo(F-R-Phe4Gn-L-Y-Nle-NMeF-Cl-ClAc)] ({CH2CO}-FR[Phe(4-guanidino)]LY[Nle][NMeF]C-NH2; thioether N-8) reads 12.6

The measured EC50 associated with CCCC[C@@H]1NC(=O)[C@H](Cc2ccc(F)nc2)NC(=O)[C@H](C)N(C)C(=O)[C@H](Cc2ccccc2)OC(=O)C23CC(CNC(=O)[C@H](Cc4cccnc4)N(C)C(=O)[C@H](CCCC)NC(=O)[C@H](Cc4ccccc4F)NC1=O)(C2)C3 [compound 235] (cyclo([NMe3Pal][X1][PhLac][NMeA][X25][Nle][Phe(2-F)][Nle])) reads 18.7

The measured EC50 associated with CCCCC[C@@H]1NC(=O)[C@H](Cc2ccc(OC)cc2)NC(=O)[C@H](CC2CCC2)NC(=O)[C@H](Cc2ccc(N3CCC[C@@H]3CN)cc2)NC(=O)[C@H](CCCNC(=N)N)NC(=O)[C@H](Cc2ccccc2)NC(=O)CSC[C@@](C)(C(N)=O)NC(=O)[C@H](Cc2ccccc2)N(C)C1=O reads 6.78

The measured EC50 associated with CCCC[C@@H]1NC(=O)[C@H](Cc2cccnc2)NC(=O)[C@H](C)N(C)C(=O)[C@H](Cc2ccccc2)NC(=O)C23CC(CNC(=O)[C@H](Cc4cccnc4)N(C)C(=O)[C@H](CCCC)NC(=O)[C@H](Cc4ccccc4F)NC1=O)(C2)C3 [compound 162] (cyclo(F[NMeA][3Pal][Nle][Phe(2-F)][Nle][NMe3Pal][X1])) reads 313

The measured EC50 associated with CCCC[C@@H]1NC(=O)[C@H](CCCCN)NC(=O)[C@H](CCCNC(=N)N)NC(=O)[C@H](Cc2cccc3ccccc23)NC(=O)CSCCNC(=O)[C@H](Cc2ccccc2)N(C)C(=O)[C@H](CCCC)NC(=O)[C@H](Cc2ccc(O)cc2)NC1=O [compound 71] (cyclo([1Nal]RK[Nle]Y[Nle][NMeF][NHCH2CH2SCH2CO])) reads 526

The measured EC50 associated with CCCC[C@@H]1NC(=O)[C@H](Cc2cccnc2)NC(=O)[C@H](CCCC(=O)N(C)C)N(C)C(=O)[C@H](Cc2ccccc2)OC(=O)C23CC(CNC(=O)[C@H](Cc4cccnc4)N(C)C(=O)[C@H](CCCC)NC(=O)[C@H](Cc4ccccc4F)NC1=O)(C2)C3 [compound 408] (cyclo([3Pal][Nle][Phe(2-F)][Nle][NMe3Pal][X1][PhLac][NMeAad](NMe2))) reads 161

The measured EC50 associated with CCCC[C@@H]1NC(=O)[C@H](Cc2ccc(CN3CCCC3)cc2)NC(=O)[C@H](CCCn2ccnc2)N(C)C(=O)[C@H](Cc2ccccc2)N(C)C(=O)C23CC(CNC(=O)[C@H](Cc4cccnc4)N(C)C(=O)[C@H](CCCC)NC(=O)[C@H](Cc4ccccc4F)NC1=O)(C2)C3 [compound 259] (cyclo([NMe3Pal][X1][NMeF][NMeNva(5-imidazol-1-yl)][X59][Nle][Phe(2-F)][Nle])) reads 3220
